# assay_comment: Kinetic solubility of the compound at pH 7.4 by CLND method
# Type: physicochemical
# condition_details: buffer, read-out: Kinetic_solubility
Let's look at some compounds and their measured solubility kinetic.
measurement_name: solubility kinetic

> print(dat)
                                    compound    measurement.name  experimental.value
 1  CC(=O)NCC[S+]([O-])CCCCN=C=S (stereo not given)  solubility kinetic            ≥ 180 µM
 2  C[S+]([O-])CCCCNC(=S)SC[C@H](NC(=O)CC[C@H](N)C(=O)O)C(=O)NCC(=O)O (stereo not given in full)  solubility kinetic            ≥ 290 µM
 3                  O=C(NCCCCN=C=S)Nc1cccnc1  solubility kinetic            ≥ 428 µM
 4  COC(=O)C(CS(=O)(=O)CCCCN=C=S)NC(C)=O (stereo not given)  solubility kinetic            ≥ 444 µM
 5  [O-][S+](CCCCN=C=S)c1ccccn1 (stereo not given)  solubility kinetic            ≥ 372 µM
 6            CC(=O)N(C)CCS(=O)(=O)CCCCN=C=S  solubility kinetic            ≥ 340 µM
 7  CN(C)CCC[S+]([O-])CCCCN=C=S (stereo not given)  solubility kinetic            ≥ 250 µM
 8  CN1CCC(SC(=S)NCCCCNC(=O)Nc2ccc3nccnc3c2)CC1  solubility kinetic            ≥ 400 µM
 9  CC(=O)N(C)CC[S+]([O-])CCCCN=C=S (stereo not given)  solubility kinetic            ≥ 110 µM
10           CN(C)c1c(N(C)CCCN=C=S)c(=O)c1=O  solubility kinetic            ≥ 394 µM
11                O=S(=O)(CCCCN=C=S)c1ccccc1  solubility kinetic            ≥ 364 µM
12  CN1CCC(SC(=S)NCC2CCS(=O)(=O)C2)CC1 (stereo not given)  solubility kinetic            ≥ 331 µM
13     CN1CCC(SC(=S)NCCCCNC(=O)Nc2cccnc2)CC1  solubility kinetic            ≥ 345 µM
14  COC(=O)[C@H](CSC(=S)NCCCC[S+](C)[O-])NC(C)=O (stereo not given in full)  solubility kinetic            ≥ 510 µM
15                           S=C=NCCN1CCSCC1  solubility kinetic            ≥ 367 µM
16  CN1CCC(SC(=S)NCCCCNC(=O)Nc2ccc3c(c2)OCO3)CC1  solubility kinetic            ≥ 358 µM
17     CN1CCC(SC(=S)NCCCCNC(=O)Oc2ccccc2)CC1  solubility kinetic            ≥ 410 µM
18  C[S+]([O-])CCCCCN=C=S (stereo not given)  solubility kinetic            ≥ 458 µM
19  CN1CCC(SC(=S)NCCCC[S+](C)[O-])CC1 (stereo not given)  solubility kinetic            ≥ 536 µM
20  O=S1(=O)CCC(CN=C=S)C1 (stereo not given)  solubility kinetic            ≥ 639 µM

---

Listed next: entries and their corresponding chromatographic logD.
# assay_comment: Lipophilicity, log D of the compound at pH 7.4 by chromatographic method
# Format: physicochemical
# condition_details: buffer
measurement_name: chromatographic logD

> print(dat)
                                   compound  experimental.value
1  [O-][S+](CCCCN=C=S)c1ccccc1 (stereo not drawn)                4.11
2          O=C(NCCCCN=C=S)Nc1ccc2c(c1)OCCO2                4.04
